- Measured On: truncated His-MBP-Tev-KLHDC2 (residues 1-363) (Homo sapiens)
- Construct: truncated His -MBP-Tev-KLHDC2 (residues 1-363) purified from E. coli; made in house; host or cells: E. coli
- Protocol Description: KLHDC2 HTRF binding assay
- Condition: 1 nM KLHDC2 (residues 1-363), fluorescein-labeled diglycine peptide probe
Parameter Measured: IC50

See these solved cases before continuing.
[
  {
    "Molecule": "NC(=O)Cc1cccc(-c2ccc(=O)n(CC(=O)O)c2)c1 [I-302]",
    "Measured On": "truncated His-MBP-Tev-KLHDC2 (residues 1-363) (Homo sapiens)",
    "IC50": "> 5 µM"
  },
  {
    "Molecule": "O=C(O)Cn1cc(NC(=O)[C@H]2CCCN(c3cccnc3)C2)c(C(F)(F)F)cc1=O [I-67]",
    "Measured On": "truncated His-MBP-Tev-KLHDC2 (residues 1-363) (Homo sapiens)",
    "IC50": "> 5 µM"
  }
]

The value of IC50 measured for the molecule O=C(O)Cn1cc(-c2cccc3[nH]ccc23)ccc1=O [I-339] turned out to be > 5 µM

The value of IC50 measured for the molecule O=C(O)Cn1cc(Nc2ncnc3c(-c4cccnc4)cccc23)ccc1=O [I-87] turned out to be > 5 µM

###

- Measured On: truncated His-MBP-Tev-KLHDC2 (residues 1-363) (Homo sapiens, UniProt Q9Y2U9)
- Construct: truncated His -MBP-Tev-KLHDC2 (residues 1-363) purified from E. coli; made in house; host or cells: E. coli
- Protocol Description: KLHDC2 FP competition binding assay
- Condition: 15 nM KLHDC2 (residues 1-363), 10 nM fluorescein-labeled diglycine peptide probe, read-out: KLHDC2 binding Human FP: average external IC50
pIC50: −log10 of the molar value.
Parameter Measured: pIC50

The value of pIC50 measured for the compound CC(C)c1ccc(C(=O)Nc2ccc(=O)n(CC(=O)O)c2)cc1-c1cccnc1 [I-174] turned out to be 5.30 to 6.30

###

- Measured On: truncated His-MBP-Tev-KLHDC2 (residues 1-363) (Homo sapiens)
- Construct: truncated His -MBP-Tev-KLHDC2 (residues 1-363) purified from E. coli; made in house; host or cells: E. coli
- Sequence (Q9Y2U9 1-363): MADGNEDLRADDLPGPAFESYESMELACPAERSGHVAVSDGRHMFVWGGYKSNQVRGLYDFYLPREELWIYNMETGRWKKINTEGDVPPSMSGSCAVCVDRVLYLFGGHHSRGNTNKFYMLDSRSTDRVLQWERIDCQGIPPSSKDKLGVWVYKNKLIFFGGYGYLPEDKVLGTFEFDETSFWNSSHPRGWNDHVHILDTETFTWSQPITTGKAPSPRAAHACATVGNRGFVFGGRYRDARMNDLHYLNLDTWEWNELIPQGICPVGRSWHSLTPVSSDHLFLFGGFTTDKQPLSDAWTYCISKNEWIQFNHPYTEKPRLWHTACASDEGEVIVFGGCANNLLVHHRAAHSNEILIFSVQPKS
- Protocol Description: KLHDC2 FP competition binding assay
- Condition: 15 nM KLHDC2 (residues 1-363), 10 nM fluorescein-labeled diglycine peptide probe, read-out: KLHDC2 binding Human FP: average external IC50
Parameter Measured: IC50

See these solved cases before continuing.
[
  {
    "Molecule": "O=C(O)Cc1cc(NC(=O)[C@@H]2CCCN(c3cccnc3)C2)ccc1Cl",
    "Parameter Measured": "IC50",
    "Recorded Measurement": "> 5 µM"
  },
  {
    "Molecule": "O=C(O)C1CC(=O)N(Cc2cccnc2)C1 (stereo not drawn)",
    "Parameter Measured": "IC50",
    "Recorded Measurement": "> 5 µM"
  },
  {
    "Molecule": "O=C(O)Cn1cc(NC(=O)c2cccc(-c3cccc(F)c3)c2)ccc1=O",
    "Parameter Measured": "IC50",
    "Recorded Measurement": "> 5 µM"
  },
  {
    "Molecule": "O=C(O)Cn1cc(NC(=O)COc2ccccc2Cl)ccc1=O",
    "Parameter Measured": "IC50",
    "Recorded Measurement": "> 5 µM"
  },
  {
    "Molecule": "N#Cc1cccc(OCC(=O)Nc2ccc(=O)n(CC(=O)O)c2)c1",
    "Parameter Measured": "IC50",
    "Recorded Measurement": "> 5 µM"
  }
]

The value of IC50 measured for the molecule `O=C(O)Cn1cc(NC(=O)[C@H]2CCCN(c3cccnc3)CC2)ccc1=O` turned out to be > 5 µM

The value of IC50 measured for the molecule `O=C(O)Cn1cc(-c2cccc3ccccc23)ccc1=O` turned out to be > 5 µM

The value of IC50 measured for the molecule `NCCCCCCn1ccc2c(C(=O)Nc3ccc(=O)n(CC(=O)O)c3)cccc21` turned out to be > 5 µM

The value of IC50 measured for the molecule `O=C(O)Cn1cc(NC(=O)c2cccc(-c3ccc(C(F)(F)F)cc3)c2)ccc1=O` turned out to be > 5 µM

The value of IC50 measured for the molecule `NCCCCCCc1ccncc1-c1cccc(C(=O)Nc2ccc(=O)n(CC(=O)O)c2)c1` turned out to be 0.5 to 5 µM

The value of IC50 measured for the molecule `CCCc1cccc(-c2ccc(=O)n(CC(=O)O)c2)c1` turned out to be > 5 µM

The value of IC50 measured for the molecule `O=C(O)Cn1cc(NC(=O)c2cccc(Br)c2)ccc1=O` turned out to be > 5 µM

The value of IC50 measured for the molecule `Cc1cccc(-c2cccn(CC(=O)O)c2=O)c1` turned out to be > 5 µM

The value of IC50 measured for the molecule `CC(C)c1cc(=O)n(CC(=O)O)cc1NC(=O)[C@H]1CCCN(c2cccnc2)C1` turned out to be > 5 µM

The value of IC50 measured for the molecule `O=C(O)Cc1cc(NC(=O)[C@H]2CCCN(c3cccnc3)C2)ccc1Cl` turned out to be 0.5 to 5 µM

The value of IC50 measured for the molecule `CC(C)(C)OC(=O)NCCCCCCc1ccc(C(=O)Nc2ccc(=O)n(CC(=O)O)c2)cc1-c1cccnc1` turned out to be 0.05 to 0.5 µM

The value of IC50 measured for the molecule `CC(C)(C)OC(=O)NCCCCCCc1cncc(-c2cccc(C(=O)Nc3ccc(=O)n(CC(=O)O)c3)c2)c1` turned out to be 0.05 to 0.5 µM

The value of IC50 measured for the molecule `O=C(O)Cn1cc(NC(=O)c2cccc(-c3ccc(F)cc3)c2)ccc1=O` turned out to be > 5 µM

The value of IC50 measured for the molecule `O=C(O)Cn1cc(NC(=O)C2(S(=O)(=O)c3ccc(Cl)cc3)CCCC2)ccc1=O` turned out to be > 5 µM

The value of IC50 measured for the molecule `Cc1nn(-c2ccc(F)cc2F)c(C)c1CC(=O)Nc1ccc(=O)n(CC(=O)O)c1` turned out to be > 5 µM

###

- Measured On: truncated His-MBP-Tev-KLHDC2 (residues 1-363) (Homo sapiens, UniProt Q9Y2U9)
- Construct: truncated His -MBP-Tev-KLHDC2 (residues 1-363) purified from E. coli; made in house; host or cells: E. coli
- Protocol Description: KLHDC2 HTRF binding assay
- Condition: 1 nM KLHDC2 (residues 1-363), fluorescein-labeled diglycine peptide probe
Parameter Measured: IC50

[
  {
    "Molecule": "O=C(O)Cn1cc(-c2ccccc2Cl)ccc1=O [I-379]",
    "IC50": "> 5 µM"
  },
  {
    "Molecule": "COc1cc(-c2ccc(Cl)cc2)ccc1C(=O)Nc1ccc(=O)n(CC(=O)O)c1 [I-134]",
    "IC50": "0.05 to 0.5 µM"
  },
  {
    "Molecule": "O=C(O)Cn1cc(-c2cccc(N3CCOCC3)c2)ccc1=O [I-322]",
    "IC50": "> 5 µM"
  },
  {
    "Molecule": "COc1cc(-c2ccc(C)cc2)ccc1C(=O)Nc1ccc(=O)n(CC(=O)O)c1 [I-135]",
    "IC50": "0.5 to 5 µM"
  }
]

truncated His-MBP-Tev-KLHDC2 (residues 1-363) (Homo sapiens, UniProt Q9Y2U9) data for O=C(O)Cn1cc(NC(=O)[C@H]2CCCN(c3cncc4ccccc34)C2)ccc1=O [I-41] ; its IC50: < 0.05 µM

truncated His-MBP-Tev-KLHDC2 (residues 1-363) (Homo sapiens, UniProt Q9Y2U9) data for Cc1sc2c(c1C)C(c1ccc(Cl)cc1)=N[C@@H](CC(=O)NCCCCCCc1cc(C(=O)Nc3ccc(=O)n(CC(=O)O)c3)cc(-c3cccnc3)c1)c1nnc(C)n1-2 [I-476] ; its IC50: 0.05 to 0.5 µM

truncated His-MBP-Tev-KLHDC2 (residues 1-363) (Homo sapiens, UniProt Q9Y2U9) data for O=C(O)Cn1cc(NC(=O)c2ccc(-c3ccccc3)c(Cl)c2)ccc1=O [I-185] ; its IC50: 0.5 to 5 µM

truncated His-MBP-Tev-KLHDC2 (residues 1-363) (Homo sapiens, UniProt Q9Y2U9) data for O=C(O)Cn1cc(NC(=O)c2cccc(-c3ccc(F)cc3)c2)ccc1=O [I-276] ; its IC50: 0.5 to 5 µM

truncated His-MBP-Tev-KLHDC2 (residues 1-363) (Homo sapiens, UniProt Q9Y2U9) data for Nc1ccc2cc(C(=O)Nc3ccc(=O)n(CC(=O)O)c3)ccc2c1 [I-151] ; its IC50: 0.5 to 5 µM

truncated His-MBP-Tev-KLHDC2 (residues 1-363) (Homo sapiens, UniProt Q9Y2U9) data for Cc1sc2c(c1C)C(c1ccc(Cl)cc1)=N[C@@H](CC(=O)NCCCCCCc1cncc(-c3cccc(C(=O)Nc4ccc(=O)n(CC(=O)O)c4)c3)c1)c1nnc(C)n1-2 [I-477] ; its IC50: < 0.05 µM

truncated His-MBP-Tev-KLHDC2 (residues 1-363) (Homo sapiens, UniProt Q9Y2U9) data for COc1cncc(-c2cccc(C(=O)Nc3ccc(O)c(CC(=O)O)c3)c2)c1 [I-22] ; its IC50: > 5 µM
